B1: EEHEE_rd4_0763 (parent)
chain: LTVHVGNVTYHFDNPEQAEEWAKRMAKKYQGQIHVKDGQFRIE

variants of: B1; assay: folding stability dG (cDNA display proteolysis); higher = more stable; conditions: PBS, room temperature
Readout Name: folding stability dG (kcal/mol)
Value expressed in kcal/mol; do not type the unit.

Solved entries (count: 3):
Mutant Label	Endpoint Result
T9F	1.37
A22K	0.757
H11K	1.6

Prompt line: Please look up its folding stability dG: `P15L`
Response line: 1.86

Prompt line: Please look up its folding stability dG: `Q17I`
Response line: 1.51

Prompt line: Please look up its folding stability dG: `Q32W`
Response line: 1.21

Prompt line: Please look up its folding stability dG: `Q39A`
Response line: 1.71

Prompt line: Please look up its folding stability dG: `V8M`
Response line: 1.69

Prompt line: Please look up its folding stability dG: `R41L`
Response line: 1.98

Prompt line: Please look up its folding stability dG: `V35L`
Response line: 1.62

Prompt line: Please look up its folding stability dG: `E19Q`
Response line: 1.58

Prompt line: Please look up its folding stability dG: `R24F`
Response line: 1.79

Prompt line: Please look up its folding stability dG: `V3Y`
Response line: 0.756
